# Assay comment: in vitro
# Condition parameters: human, Caco-2, pH 7.4
Listing: Papp A→B at 90 min, 10 μM of selected compounds

{"Compound": "Clc1cccnc1CN(CCc1cnc[nH]1)Cc1ncccc1-c1ccccc1 [Compound I-39]", "Papp A→B at 90 min, 10 μM": "> 10 ×10⁻⁶ cm/s"}
{"Compound": "Cc1cccnc1CN(CCc1cnc[nH]1)Cc1ncccc1-c1ccccc1 [Compound I-57]", "Papp A→B at 90 min, 10 μM": "< 5 ×10⁻⁶ cm/s"}
{"Compound": "Cn1c(CN(CCc2c[nH]cn2)[C@H]2CCCc3cccnc32)nc2ccccc21 [Compound I-25]", "Papp A→B at 90 min, 10 μM": "< 5 ×10⁻⁶ cm/s"}
{"Compound": "NC(=O)CCN(Cc1nc2ccccc2[nH]1)[C@H]1CCCc2cccnc21 [Compound I-21]", "Papp A→B at 90 min, 10 μM": "< 5 ×10⁻⁶ cm/s"}
{"Compound": "Clc1cccnc1CN(CCc1cnc[nH]1)Cc1nccc2ccccc12 [Compound I-37]", "Papp A→B at 90 min, 10 μM": "5 to 10 ×10⁻⁶ cm/s"}
{"Compound": "Clc1cccnc1CN(CCc1cnc[nH]1)Cc1nccs1 [Compound I-53]", "Papp A→B at 90 min, 10 μM": "> 10 ×10⁻⁶ cm/s"}
{"Compound": "Cc1cccnc1CN(CCc1cnc[nH]1)Cc1ncccc1C [Compound I-9]", "Papp A→B at 90 min, 10 μM": "< 5 ×10⁻⁶ cm/s"}
